Where do these numbers come from? They come from PubChem BioAssay (NCI).

# System: MDA-MB-435
Result category, one only: 1.0 (active), 0.0 (inactive)

In [3]: df
Out[3]:
                                   compound  label
0  Nc1c2c(c(O)c3c1=C(CO)C=N3)=NCCS2=O (stereo not given)    0.0
1  O=C1/C=C/[C@@H](O)[C@@H]2C[C@@H](O)C[C@H]2/C=C/CCCCO1    1.0
2  COc1cc(/C=C2\CCCC3=C2N=C2SC=NN2C3c2cc(OC)c(OC)c(OC)c2)cc(OC)c1OC (stereo not given)    0.0
3  Nc1c(S(=O)(=O)O)cc2c(c1Cl)C(=O)c1ccccc1C2=O    0.0
4                 c1ccc(Oc2cnc3ccccc3n2)cc1    0.0

Request: What did the test return for OC(c1cc2c(Cl)cc(Cl)cc2c2cc(C(F)(F)F)ccc12)C1CCCCN1 (stereo not given) ?
Response: 0.0

Request: Status in this test for O=C(/C=C/c1ccco1)c1cccc(Nc2nc(Nc3ccccc3)nc(Nc3ccccc3)n2)c1 ?
Response: 0.0

Request: Which result was noted for this compound in the test: O=C1COCCN1c1ccc(NCc2cn(Cc3ccc(F)cc3)c3ccccc23)cc1
Response: 0.0

Request: For this compound, state the assay outcome: COc1ccc(S(=O)(=O)Nc2c(/C=C\c3cc(OC)c(OC)c(OC)c3)ccc(OC)c2O)cc1OC
Response: 1.0

====

Reported TGI values for a set of compounds
# Test system: ACHN renal
# measurement description: NCI tumour cell line growth inhibition, 48 h

compound	test system	TGI
NC(=O)NC(=O)c1cccc(C(=O)NC(N)=O)n1	ACHN renal	> 100 µM
COc1ccc2c(c1)[n+](=O)c(C(=O)C/C(=N\NC(=O)C[N+](C)(C)C)C(=O)Nc1cc(Cl)ccc1Cl)c(C)n2O	ACHN renal	> 100 µM
COc1ccc(-n2cc(-c3ccc(F)cc3)[nH]c2=O)cc1OC	ACHN renal	> 100 µM
COc1ccc2oc(=O)c(-c3nc4ccccc4s3)cc2c1	ACHN renal	12.7 µM
CC(=O)NC1C(OCc2ccccc2)OC(COC(=O)CCCCCCCCCCNC(=O)CCNc2ccc([N+](=O)[O-])c3[nH]c4ccc(O)cc4c(=O)c23)C(O)C1OC(C)C(=O)N[C@H](C(=O)N[C@H](CCC(=O)O)C(N)=O)C(C)C (stereo partly specified)	ACHN renal	> 100 µM
FC1(F)SC2CCCCCCCCCCC2C1(F)F (stereo unspecified)	ACHN renal	73.8 µM
Cc1nc2ccccc2n1Cc1ccc(NC(=S)NC2CCCCC2)cc1	ACHN renal	44.4 µM
N#C[C@H](c1nc2ccccc2[nH]1)c1nc2ccccc2nc1Cl	ACHN renal	> 46 µM

Request: # query: TGI | item O=C1CCCC1C(O)(C(F)(F)Cl)C(F)(F)Cl (stereo unspecified) | system: ACHN renal
Response: > 10 µM

Request: Which TGI is reported with ACHN renal for this entry: COc1ccc(/C=C/C(=O)N[C@@H]2C(=O)N3[C@@H]2SC(C)(C)[C@@H]3C(=O)O)cc1OC ?
Response: > 100 µM

Request: Form field - read-out: TGI; system: ACHN renal; submitted item: Cn1cc(C2=C(c3cn(CCCN/C(N)=N\[N+](=O)[O-])c4ccccc34)C(=O)NC2=O)c2ccccc21
Response: > 25 µM
